Below: a set of entries, each annotated with reported HeLa Cell Survival Rate.
- Tested on: HeLa cells
- Assay details: Cytotoxicity assay (MTT assay) on HeLa cells
- Condition details: 1 μg/ml, 48 hrs
Return type: number; implicit unit %.

Solved entries:
Molecule: COc1ccc2cc3[n+](cc2c1OC)CCc1cc2c(cc1-3)OCO2.[Cl-] [Compound H, berberine hydrochloride]
Assay target: HeLa cells
Recorded endpoint: HeLa Cell Survival Rate
Quantitative result: 84
//
Molecule: CC(C)[C@]12O[C@H]1[C@@H]1O[C@]13[C@]1(O[C@H]1C[C@H]1C4=C(CC[C@@]13C)C(=O)OC4)[C@@H]2O [Compound B, triptolide]
Assay target: HeLa cells
Recorded endpoint: HeLa Cell Survival Rate
Quantitative result: 12
//
Molecule: Cc1cc2c(C(C)C)c(O)c(O)c(C=O)c2c(O)c1-c1c(C)cc2c(C(C)C)c(O)c(O)c(C=O)c2c1O
Assay target: HeLa cells
Recorded endpoint: HeLa Cell Survival Rate
Quantitative result: 105

Okay, next one:
Exam item: Determine from records and report HeLa Cell Survival Rate for `O=C(O)[C@H]1O[C@@H](Oc2cc3oc(-c4ccccc4)cc(=O)c3c(O)c2O)[C@H](O)[C@@H](O)[C@@H]1O`
Marked response: 96
